These data points were gathered from patent US20220041746A1.

List of Kd values.
measurement target: T1, hCD38-his (SEQ ID NO: 2) (human, UniProt P28907 45-300)
T1 construct: His-tagged soluble protein derived from isoform A; also called human CD38-histag; hCD38::Histag
protocol text: SPR, mAb captured via anti-human Fc, soluble CD38-his injected
Write it as a number; the unit pM goes unstated.

// below: answered binders
[
  {
    "binder": "mAb5 (antibody, human IgG1, kappa, V domains shown, also called antiCD38_C2-CD38-1_VH6-VL3) VH: QVQLVQSGAEVVKPGASVKMSCKASGYTFTSFNMHWVKEAPGQRLEWIGYIYPGNGGTNYNQKFQGRATLTADTSASTAYMEISSLRSEDTAVYFCARTGGLRRAYFTYWGQGTLVTVSS VL: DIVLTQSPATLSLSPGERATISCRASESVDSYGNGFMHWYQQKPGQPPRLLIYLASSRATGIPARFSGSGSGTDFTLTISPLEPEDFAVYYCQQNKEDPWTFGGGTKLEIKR",
    "endpoint name": "Kd",
    "reported": 312
  },
  {
    "binder": "mAb2 (antibody, human IgG1, kappa, V domains shown, also called antiCD38_C2-CD38-1_VH1-VL1; CD38VH1) VH: QVQLVQSGAEVVKPGASVKVSCKASGYTFTSYAMHWVKEAPGQRLEWIGYIYPGQGGTNYNQKFQGRATLTADTSASTAYMELSSLRSEDTAVYFCARTGGLRRAYFTYWGQGTLVTVSS VL: DIVLTQSPATLSLSPGERATISCRASQSVSSYGQGFMHWYQQKPGQPPRLLIYGASSRATGIPARFSGSGSGTDFTLTISPLEPEDFAVYYCQQNKEDPWTFGGGTKLEIKR",
    "endpoint name": "Kd",
    "reported": 332
  },
  {
    "binder": "mAb1 (antibody, human IgG1, kappa, V domains shown, also called antiCD38_C2-CD38-1) VH: QVQLQQSGAELVRSGASVKMSCKASGYTFTSFNMHWVKETPGQGLEWIGYIYPGNGGTNYNQKFKGKATLTADTSSSTAYMQISSLTSEDSAVYFCARTGGLRRAYFTYWGQGTLVTVSS VL: DIVLTQSPASLAVSLGQRATISCRASESVDSYGNGFMHWYQQKPGQPPKLLIYLASNLESGVPARFSGSGSRTDFTLTIDPVEADDAATYYCQQNKEDPWTFGGGTKLEIKR",
    "endpoint name": "Kd",
    "reported": 336
  }
]

Can you look up the measured Kd of mAb4 (antibody, human IgG1, kappa, V domains shown, also called antiCD38_C2-CD38-1_VH5-VL3) VH: QVQLVQSGAEVVKSGASVKVSCKASGYTFTSFNMHWVKEAPGQGLEWIGYIYPGNGGTNYNQKFQGRATLTADTSASTAYMEISSLRSEDTAVYFCARTGGLRRAYFTYWGQGTLVTVSS VL: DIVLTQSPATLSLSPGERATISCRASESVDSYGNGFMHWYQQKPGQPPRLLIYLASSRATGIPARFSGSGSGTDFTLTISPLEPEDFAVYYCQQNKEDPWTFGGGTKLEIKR for me?
822
